molecular target: IDH1^R132C (Homo sapiens, UniProt O75874, R132C); assay: NADPH depletion assay, IDH1 R132C
Sequence (O75874 whole entry R132C): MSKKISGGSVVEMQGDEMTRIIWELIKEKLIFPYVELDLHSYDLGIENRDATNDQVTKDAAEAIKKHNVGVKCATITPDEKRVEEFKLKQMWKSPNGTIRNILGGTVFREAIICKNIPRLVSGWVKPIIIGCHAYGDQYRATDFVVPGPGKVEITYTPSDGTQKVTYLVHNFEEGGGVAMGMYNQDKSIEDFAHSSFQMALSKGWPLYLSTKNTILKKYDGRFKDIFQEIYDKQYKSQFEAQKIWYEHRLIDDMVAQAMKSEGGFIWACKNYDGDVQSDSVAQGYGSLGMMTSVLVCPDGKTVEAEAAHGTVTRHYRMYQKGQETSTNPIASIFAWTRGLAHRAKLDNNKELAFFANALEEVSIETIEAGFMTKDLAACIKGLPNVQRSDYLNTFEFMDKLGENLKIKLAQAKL
Could you mark each record 1 if its IC50 falls strictly under 60 nM, and 0 if it equals or exceeds it?

Task: Decide: IC50 of CC(C)[C@H](C)n1c(=O)ccc2cnc(N[C@@H](C)c3ccc(C4=CCN(C(=O)OC(C)(C)C)CC4)cc3)nc21 strictly below 60 nM?
Output: 1

Task: Decide: IC50 of C[C@@H]1CN(Cc2ccc([C@H](C)Nc3ncc4ccc(=O)n([C@@H](C)C5CC5)c4n3)cc2F)C[C@H](C)O1 strictly below 60 nM?
Output: 1

Task: Decide: IC50 of C=CC(=O)N1CCN(Cc2ccc([C@H](C)Nc3ncc4ccc(=O)n([C@@H](C)C(C)C)c4n3)cc2)CC1 strictly below 60 nM?
Output: 1

Task: Decide: IC50 of C=CC(=O)N1CC=C(c2ccc([C@H](C)Nc3ncc4ccc(=O)n([C@@H](C)C(C)C)c4n3)cc2)CC1 strictly below 60 nM?
Output: 1

Task: Decide: IC50 of C[C@H](Nc1ncc2ccc(=O)n(Cc3cccc(C(F)(F)F)c3)c2n1)c1ccc(Cl)cc1 strictly below 60 nM?
Output: 0

Task: Decide: IC50 of C#Cc1ccc(Cn2c(=O)ccc3cnc(N[C@@H](C)c4ccc(CN5CCN(C(=O)C=C)CC5)cc4)nc32)c(F)c1 strictly below 60 nM?
Output: 1

Task: Decide: IC50 of C[C@H](Nc1ncc2cc(F)c(=O)n(CC(C)(C)C)c2n1)c1ccc(CN2CCCC(F)(F)C2)cc1 strictly below 60 nM?
Output: 0

====

molecular target: IDH2^R172K (Homo sapiens, UniProt P48735, R172K); assay: NADPH depletion assay, IDH2 R172K
Sequence (P48735 40-452 R172K): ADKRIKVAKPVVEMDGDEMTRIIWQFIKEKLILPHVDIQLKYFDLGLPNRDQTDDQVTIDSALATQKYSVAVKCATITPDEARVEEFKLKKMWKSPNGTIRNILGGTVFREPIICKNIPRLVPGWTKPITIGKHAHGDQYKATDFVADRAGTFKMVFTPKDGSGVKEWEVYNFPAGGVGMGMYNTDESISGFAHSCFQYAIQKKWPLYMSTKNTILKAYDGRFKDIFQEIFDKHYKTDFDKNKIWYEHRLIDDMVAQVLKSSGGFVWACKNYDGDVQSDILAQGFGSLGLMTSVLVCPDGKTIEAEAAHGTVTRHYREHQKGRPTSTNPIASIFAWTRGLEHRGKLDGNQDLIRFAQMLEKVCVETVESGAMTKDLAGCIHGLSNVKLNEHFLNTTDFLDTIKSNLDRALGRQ
PARAMETER_MEASURED: IC50
Answer as a quantity: numeral, then unit.

Task: Report IC50 for C=CC(=O)N1CCN(c2ccc([C@H](C)Nc3ncc4ccc(=O)n([C@@H](C)C(C)C)c4n3)cc2F)CC1 [cpd 179] please.
Output: 2350 nM

Task: Report IC50 for C=CC(=O)N1CCN(c2ccc([C@H](C)Nc3ncc4ccc(=O)n([C@@H](C)C(C)C)c4n3)cc2)CC1 [cpd 175] please.
Output: 442 nM

Task: Report IC50 for COC(=O)c1ccc([C@H](C)Nc2ncc3ccc(=O)n(Cc4ccc(F)cc4)c3n2)cc1 [cpd 6] please.
Output: 6650 nM

Task: Report IC50 for C=CC(=O)N1CCC(Oc2ccc([C@H](C)Nc3ncc4ccc(=O)n([C@@H](C)C(C)C)c4n3)cc2)CC1 [cpd 159] please.
Output: 510 nM

====

biological target: IDH1^R132H homodimer enzyme (Homo sapiens, UniProt O75874, R132H); test: NADPH depletion assay, IDH1 R132H
Sequence (O75874 whole entry R132H): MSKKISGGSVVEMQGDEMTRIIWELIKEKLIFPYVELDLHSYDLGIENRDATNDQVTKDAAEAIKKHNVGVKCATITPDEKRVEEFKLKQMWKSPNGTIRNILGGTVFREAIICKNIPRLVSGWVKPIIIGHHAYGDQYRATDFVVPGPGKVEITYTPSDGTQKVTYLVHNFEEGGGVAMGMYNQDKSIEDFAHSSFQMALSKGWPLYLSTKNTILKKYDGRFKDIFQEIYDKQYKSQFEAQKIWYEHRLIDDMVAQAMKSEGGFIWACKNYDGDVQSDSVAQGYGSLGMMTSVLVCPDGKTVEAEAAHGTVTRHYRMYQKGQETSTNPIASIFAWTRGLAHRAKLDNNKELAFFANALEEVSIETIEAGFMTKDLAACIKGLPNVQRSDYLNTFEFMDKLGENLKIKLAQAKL
PARAMETER_MEASURED: pIC50
API: returns pIC50 as number; meaning -log10 of concentration in mol/L.

Task: Report pIC50 for C=CC(=O)N1CCN([C@@H](CC2CC2)c2ccc(C3(Nc4ncc5ccc(=O)n(C(C)C)c5n4)CC3)cc2)CC1 (single isomer, unassigned) [cpd 246] please.
Output: 8.70

Task: Report pIC50 for C[C@H](Nc1ncc2ccc(=O)n(CC(F)(F)F)c2n1)c1ccc(Cl)cc1 [cpd 18] please.
Output: 5.39

Task: Report pIC50 for CCn1c(=O)ccc2cnc(N[C@@H](C)c3ccc(C(=O)N4CCN(C(=O)OC(C)(C)C)CC4)cc3)nc21 [cpd 189] please.
Output: 5.42

Task: Report pIC50 for C[C@H](Nc1ncc2ccc(=O)n(CC(C)(C)C)c2n1)c1ccc(CN2CCC(F)(F)C2)cc1 [cpd 148] please.
Output: 6.73

====

target: IDH1^R132H homodimer enzyme (Homo sapiens, UniProt O75874, R132H); assay: NADPH depletion assay, IDH1 R132H
Could you mark each record y if its IC50 falls strictly under 50 nM, and n if it equals or exceeds it?

Task: Decide: IC50 of CC(C)[C@H](C)n1c(=O)ccc2cnc(N[C@@H](C)c3ccc(-c4ccnc(F)c4)cn3)nc21 strictly below 50 nM?
Output: n

Task: Decide: IC50 of C=CC(=O)N1CCN(Cc2ccc([C@H](C)Nc3ncc4ccc(=O)n([C@@H](C)C(F)(F)F)c4n3)cc2)CC1 strictly below 50 nM?
Output: n

Task: Decide: IC50 of C[C@H](Nc1ncc2ccc(=O)n([C@@H](C)C(C)(C)C)c2n1)c1ccc(CN2CCCC(F)(F)C2)cc1 strictly below 50 nM?
Output: y

Task: Decide: IC50 of C=CC(=O)N1CCN(C(CC)c2ccc([C@H](C)Nc3ncc4ccc(=O)n(CC)c4n3)cc2)CC1 (stereo partly shown) strictly below 50 nM?
Output: y

Task: Decide: IC50 of CC(C)[C@H](C)n1c(=O)ccc2cnc(N[C@@H](C)c3ccc(N4CCN(C(=O)OCc5ccccc5)CC4)c(F)c3)nc21 strictly below 50 nM?
Output: y

Task: Decide: IC50 of C[C@H](Nc1ncc2ccc(=O)n(Cc3c(F)cccc3F)c2n1)c1ccc(C(=O)NC2CCC(F)(F)CC2)cc1 strictly below 50 nM?
Output: n

Task: Decide: IC50 of C=CC(=O)N1CCC(Oc2ccc([C@H](C)Nc3ncc4ccc(=O)n(CC(C)(C)C)c4n3)cc2)CC1 strictly below 50 nM?
Output: n

====

test system: U87MG_IDH1R132H; assay: Cellular 2-HG production assay, U87-MG-IDH1 R132H; type: cell-based; conditions: inhibition of 2HG production, 72 hr incubation, LC-MS/MS
Answer each item with its documented pIC50.
API: returns pIC50 as number; meaning -log10 of concentration in mol/L.

Task: Report pIC50 for CC(C)n1c(=O)ccc2cnc(N[C@@H](C)c3ccc(CN4CCCC(F)(F)C4)cc3)nc21 please.
Output: 6.20

Task: Report pIC50 for C[C@H](Nc1ncc2ccc(=O)n(Cc3c(F)cccc3F)c2n1)c1ccc(C(=O)N2CCC(F)(F)CC2)cc1 please.
Output: 5.52

Task: Report pIC50 for C[C@H](Nc1ncc2ccc(=O)n(CC3CCC3)c2n1)c1ccc(CN2CCC(F)(F)CC2)cc1 please.
Output: 5.74

Task: Report pIC50 for C[C@H](Nc1ncc2ccc(=O)n(CC(C)(C)C#N)c2n1)c1ccc2ccccc2c1 please.
Output: 5.42

Task: Report pIC50 for C=CC(=O)N1CCN(Cc2ccc([C@H](C)Nc3ncc4ccc(=O)n(CC(C)(C)C)c4n3)cc2F)CC1 please.
Output: 7.62

Task: Report pIC50 for C=CC(=O)N1CCN(Cc2ccc([C@H](C)Nc3ncc4ccc(=O)n(CC(C)(C)CO)c4n3)cc2)CC1 please.
Output: 8.00

====

Answer each item with its documented IC50.
biological target: IDH1^R132C (Homo sapiens, UniProt O75874, R132C); construct: purchased not specified; assay: NADPH depletion assay, IDH1 R132C; type: biochemical
Counter-ions that a name gives are not always drawn.
Numeric only. Scale: nM

Task: Report IC50 for C[C@H](Nc1ncc2ccc(=O)n(CC(C)(C)C)c2n1)c1ccc(OC2CCN(C(=O)OC(C)(C)C)CC2)cc1 please.
Output: 79

Task: Report IC50 for C[C@H](Nc1ncc2ccc(=O)n(CC3(C)COC3)c2n1)c1ccc2ccccc2c1 please.
Output: 206

Task: Report IC50 for C=CC(=O)N1CCN([C@@H](CC)c2ccc(C3(Nc4ncc5ccc(=O)n(C(C)C)c5n4)CC3)cc2)CC1 (single isomer, unassigned) please.
Output: 3

Task: Report IC50 for C=CC(=O)N1CCN(C(CC)c2ccc(C3(Nc4ncc5ccc(=O)n(C(C)C)c5n4)CC3)cc2)CC1 (stereo not drawn) please.
Output: 4

Task: Report IC50 for C=CC(=O)N1CCN([C@H](CC)c2ccc([C@H](C)Nc3ncc4ccc(=O)n(C(C)C)c4n3)cc2)CC1 please.
Output: 2

Task: Report IC50 for C=C(C)C(=O)N1CCN(Cc2ccc([C@H](C)Nc3ncc4ccc(=O)n([C@@H](C)C(C)C)c4n3)cc2)CC1 please.
Output: 30

Task: Report IC50 for C[C@H](Nc1ncc2ccc(=O)n(CC(C)(C)C)c2n1)c1ccc(CN2CCNCC2)cc1 [cpd 138, hydrochloride] please.
Output: 777

Task: Report IC50 for CC(C)n1c(=O)ccc2cnc(N[C@@H](C)c3ccc(CN4CCCC(F)(F)C4)cc3)nc21 please.
Output: 90

Task: Report IC50 for C=CC(=O)N1CCN(Cc2ccc([C@H](C)Nc3ncc4ccc(=O)n([C@@H](C)CO)c4n3)cc2)CC1 please.
Output: 1530

Task: Report IC50 for C=CC(=O)N1CCN(Cc2ccc([C@H](C)Nc3ncc4ccc(=O)n([C@@H](C)CF)c4n3)cc2)CC1 please.
Output: 401

Task: Report IC50 for CC(C)[C@H](C)n1c(=O)ccc2cnc(N[C@@H](C)c3ccc(N4CCNCC4)nc3)nc21 please.
Output: 3540

Task: Report IC50 for Cc1ccccc1Cn1c(=O)ccc2cnc(N[C@@H](C)c3ccc(CN4CCC(F)(F)CC4)cc3)nc21 please.
Output: 178

Task: Report IC50 for C[C@H](Nc1ncc2ccc(=O)n(CC(C)(C)C)c2n1)c1ccc(CN2CC(F)(F)C2)cc1 please.
Output: 173

Task: Report IC50 for C[C@H](Nc1ncc2ccc(=O)n(CC(C)(C)C)c2n1)c1ccc(CN2CCC(F)(F)CC2)cc1F please.
Output: 65

Task: Report IC50 for C[C@H](Nc1ncc2ccc(=O)n(CC(C)(C)C)c2n1)c1ccc(CN2CCC(F)(F)C2)cc1 please.
Output: 109
